The origin of these recorded values is patent US9957264B2.

Biological target: JAK2 (recombinant purified GST-tagged catalytic domain) (Homo sapiens (Human))
Sequence (O60674 849-1124): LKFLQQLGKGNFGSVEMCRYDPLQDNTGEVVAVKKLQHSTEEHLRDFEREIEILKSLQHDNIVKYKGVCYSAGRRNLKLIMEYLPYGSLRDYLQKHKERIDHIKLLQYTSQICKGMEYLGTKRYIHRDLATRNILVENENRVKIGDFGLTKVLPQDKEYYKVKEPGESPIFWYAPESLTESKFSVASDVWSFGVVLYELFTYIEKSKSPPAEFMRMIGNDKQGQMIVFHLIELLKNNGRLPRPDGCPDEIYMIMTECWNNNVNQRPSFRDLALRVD
Experiment: Jak Biochemical HTRF Assay (JAK2)
Conditions: [ATP] 8.5 μM
recordedEndpoint: pIC50
Just so you know, pIC50 here is -log10 of the concentration in molar units; reply with that number alone.

Value of pIC50 reported for the molecule CC(C)(C)OC(=O)CN1Cc2cc(Nc3nn([C@]4(CC#N)CCCOC4)c4cc[nH]c(=O)c34)ccc2S1(=O)=O [Example 5-185] is 8.82

Value of pIC50 reported for the molecule CC1CCN1S(=O)(=O)c1ccc(Nc2nn([C@]3(CC#N)CCCOC3)c3cc[nH]c(=O)c23)cc1 (single isomer, unassigned) [Example 5-108] is 9.64

Value of pIC50 reported for the molecule CC(C)(C)OC(=O)N1CC[C@](CC#N)(n2nc(Nc3ccccc3)c3c(=O)[nH]ccc32)[C@H](F)C1 [Example 5-19] is 10.10

Value of pIC50 reported for the molecule CNC(=O)c1ccc(Nc2nn(C3(CC#N)CCCC3)c3cc[nH]c(=O)c23)cc1 [Example 5-128] is 8.65

Value of pIC50 reported for the molecule CC(C)(C)S(=O)(=O)c1ccc(Nc2nn([C@@]3(CC#N)CCOC3)c3cc[nH]c(=O)c23)cc1 (single isomer, unassigned) [Example 5-249] is 8.61

Value of pIC50 reported for the molecule N#CCC1(n2nc(Nc3ccc(C(F)(F)F)cc3)c3c(=O)[nH]ccc32)CCC(N2CC(F)C2)CC1 (single isomer, unassigned) [Example 18-1] is 9.03

Value of pIC50 reported for the molecule CS(=O)(=O)c1ccc(Nc2nn([C@]3(CC#N)CCCOC3)c3cc[nH]c(=O)c23)cc1 [Example 5-31] is 8.79

Value of pIC50 reported for the molecule CC(C)(C)OC(=O)[C@@H]1CC[C@@](CC#N)(n2nc(Nc3ccc(C4(C(F)(F)F)CCCCN4)cc3)c3c(=O)[nH]ccc32)CO1 (single isomer, unassigned) [Example 5-286] is 9.48

Value of pIC50 reported for the molecule Cc1ccc2cc(Nc3nn([C@]4(CC#N)CC[C@@H](C(=O)OC(C)(C)C)OC4)c4cc[nH]c(=O)c34)ccc2n1 [Example 5-217] is 9.11

Value of pIC50 reported for the molecule CCNC(c1ccc(Nc2nn([C@]3(CC#N)CC[C@@H](C(=O)OC(C)(C)C)OC3)c3cc[nH]c(=O)c23)cc1)C(F)(F)F (single isomer, unassigned) [Example 5-208] is 9.51

Value of pIC50 reported for the molecule Cc1cc(Nc2nn([C@]3(CC#N)CCCOC3)c3cc[nH]c(=O)c23)ccc1C(=O)N1CCCC[C@H]1C [Example 20-3] is 9.08

* * *

Biological target: JAK1 (recombinant purified GST-tagged catalytic domain) (Homo sapiens (Human), UniProt P23458)
Sequence (P23458 875-1153): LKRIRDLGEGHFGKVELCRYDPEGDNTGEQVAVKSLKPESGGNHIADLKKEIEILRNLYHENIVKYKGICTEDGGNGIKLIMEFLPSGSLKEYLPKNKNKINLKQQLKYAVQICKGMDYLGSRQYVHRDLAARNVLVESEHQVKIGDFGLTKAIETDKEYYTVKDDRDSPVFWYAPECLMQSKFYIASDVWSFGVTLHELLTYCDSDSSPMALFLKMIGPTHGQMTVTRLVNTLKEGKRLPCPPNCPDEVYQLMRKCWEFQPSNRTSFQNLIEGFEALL
Experiment: Jak Biochemical HTRF Assay (JAK1)
Conditions: [ATP] 31.8 μM
Procedure: Jak Biochemical HTRF Assay Protocol The ability of compounds to inhibit the activity of JAK1, JAK2, JAK3, and Tyk2 was measured using a recombinant purified GST-tagged catalytic domain for each enzyme (Invitrogen JAK1 #M4290, JAK2 #M4290, JAK3 #M4290, Tyk2 #M4290) in an HTRF format biochemical assay. […] Plates were shaken and centrifuged and then incubated 60 minutes at room temperature and then read on a Perkin Elmer Envision (λex=337 nm, λem=665 and 615 nm, TRF delay time=20 μs). […]
recordedEndpoint: IC50 (pM)
Provide the reading as a plain figure in pM.

Value of IC50 reported for the compound Cc1cc(Nc2nn([C@]3(CC#N)CC[C@@H](C(=O)OC(C)(C)C)OC3)c3cc[nH]c(=O)c23)ccc1C(=O)N1CCOC(C)(C)C1 [Example 5-220] is 140

Value of IC50 reported for the compound CC(C)Oc1ccc(CN2CCC(CC#N)(n3nc(Nc4ccc(S(=O)(=O)N(C)C)cc4)c4c(=O)[nH]ccc43)CC2)cc1 [Example 8-6] is 1940

Value of IC50 reported for the compound CN(C(C)(C)C)S(=O)(=O)c1ccc(Nc2nn([C@]3(CC#N)CCCOC3)c3cc[nH]c(=O)c23)cc1 [Example 5-182] is 250

* * *

Biological target: JAK1 (recombinant purified GST-tagged catalytic domain) (Homo sapiens (Human))
Assay: Jak Biochemical HTRF Assay (JAK1)
Details: [ATP] 31.8 μM
pIC50: −log10 of the molar value.
Binary call on pIC50: t from 9 upward, f beneath that.

Entry N#CC[C@]1(n2nc(Nc3ccc(Cl)c(F)c3)c3c(=O)[nH]ccc32)CC[C@@H](Nc2ccccc2)CC1 [Example 18-25] : is its pIC50 no less than 9?
f

Entry Cc1nc2ccc(Nc3nn([C@]4(CC#N)CC[C@@H](C(=O)OC(C)(C)C)OC4)c4cc[nH]c(=O)c34)cc2s1 [Example 21-1] : is its pIC50 no less than 9?
t

Entry CC(C)(C)S(=O)(=O)c1ccc(Nc2nn(C3(CC#N)CCCC3)c3cc[nH]c(=O)c23)cc1 [Example 5-122] : is its pIC50 no less than 9?
t

Entry C[C@@H]1CN(C(=O)OC(C)(C)C)CC[C@]1(CC#N)n1nc(Nc2ccc(S(C)(=O)=O)cc2)c2c(=O)[nH]ccc21 (racemic) [Example 5-11] : is its pIC50 no less than 9?
t

Entry CN(C)S(=O)(=O)c1ccc(Nc2nn([C@]3(CC#N)CC[C@H](N4CC(F)C4)CC3)c3cc[nH]c(=O)c23)cc1 [Example 18-30] : is its pIC50 no less than 9?
f

Entry CC(C)(C)OC(=O)C(C)(C)N1Cc2cc(Nc3nn(C4(CC#N)CCCC4)c4cc[nH]c(=O)c34)ccc2C1=O [Example 5-140] : is its pIC50 no less than 9?
t

Entry CC1CN(S(=O)(=O)c2ccc(Nc3nn([C@]4(CC#N)CCCOC4)c4cc[nH]c(=O)c34)cc2)C1 [Example 5-106] : is its pIC50 no less than 9?
t

Entry CC(C)(C)OC(=O)N1CC[C@@](CC#N)(n2nc(Nc3ccc(S(C)(=O)=O)cc3)c3c(=O)[nH]ccc32)[C@@H](F)C1 [Example 5-16] : is its pIC50 no less than 9?
t

Entry CN(C)S(=O)(=O)c1ccc(Nc2nn(C3(CC#N)CCN(C(=O)CC#N)CC3)c3cc[nH]c(=O)c23)cc1 [Example 9-25] : is its pIC50 no less than 9?
t

Entry N#CCC1(n2nc(Nc3ccc(F)cc3)c3c(=O)[nH]ccc32)CCNCC1 [Example 6] : is its pIC50 no less than 9?
f

Entry N#CC[C@@]1(n2nc(Nc3ccc(C(N)C(F)(F)F)cc3)c3c(=O)[nH]ccc32)CCCOC1 (single isomer, unassigned) [Example 5-188] : is its pIC50 no less than 9?
t

Entry N#CC[C@]1(n2nc(Nc3ccc([C@@]4(C(F)(F)F)CCCCN4)cc3)c3c(=O)[nH]ccc32)CCOC[C@H]1F (single isomer, unassigned) [Example 5-264] : is its pIC50 no less than 9?
t

* * *

Molecular target: JAK2 (recombinant purified GST-tagged catalytic domain) (Homo sapiens (Human))
Assay: Jak Biochemical HTRF Assay (JAK2)
Settings: [ATP] 8.5 μM
recordedEndpoint: pIC50
Just so you know, pIC50 here is -log10 of the concentration in molar units; reply with that number alone.

Value of pIC50 reported for the compound CC(C)(C)OC(=O)N1CC[C@](CC#N)(n2nc(Nc3ccc([C@@H](O)C(F)(F)F)cc3)c3c(=O)[nH]ccc32)[C@H](F)C1 (single isomer, unassigned) is 9.85

Value of pIC50 reported for the compound `Cc1nc2ccc(Nc3nn([C@]4(CC#N)CC[C@@H](C(=O)OC(C)(C)C)OC4)c4cc[nH]c(=O)c34)cc2s1` is 9.14

Value of pIC50 reported for the compound `N#CC[C@]1(n2nc(Nc3ccc(Cl)c(F)c3)c3c(=O)[nH]ccc32)CC[C@H](Nc2ccccc2)CC1` is 7.26

Value of pIC50 reported for the compound `CC(C)(C)OC(=O)N1CC(CC#N)(n2nc(NC3CC3)c3c(=O)[nH]ccc32)C1` is 8.60

Value of pIC50 reported for the compound `N#CC[C@]1(n2nc(Nc3ccc(OC(F)(F)F)cc3)c3c(=O)[nH]ccc32)CC[C@@H](Nc2ccccc2)CC1` is 5.96

Value of pIC50 reported for the compound `Cc1cc(C)cc(Nc2nn(C3(CC#N)CCN(C(=O)OC(C)(C)C)CC3)c3cc[nH]c(=O)c23)c1` is 7.90

* * *

Target: JAK1 (recombinant purified GST-tagged catalytic domain) (Homo sapiens (Human), UniProt P23458)
Assay: Jak Biochemical HTRF Assay (JAK1)
Details: [ATP] 31.8 μM
Kindly state pIC50 for each of the entries shown.
Just so you know, pIC50 here is -log10 of the concentration in molar units; reply with that number alone.

Value of pIC50 reported for the compound `CCN(C(C)(C)C)S(=O)(=O)c1ccc(Nc2nn(C3(CC#N)CCCC3)c3cc[nH]c(=O)c23)cc1` is 9.01

Value of pIC50 reported for the compound `CCS(=O)(=O)c1ccc(Nc2nn(C3(CC#N)CCCC3)c3cc[nH]c(=O)c23)cc1` is 9.36

Value of pIC50 reported for the compound `CN(C)S(=O)(=O)c1ccc(Nc2nn(C3(CC#N)CCCCC3)c3cc[nH]c(=O)c23)cc1` is 9.11

Value of pIC50 reported for the compound `CC(C)(C)OC(=O)N1CCC(CC#N)(n2nc(Nc3cc(Cn4ccnn4)cc(Cn4nccn4)c3)c3c(=O)[nH]ccc32)CC1` is 9.24

Value of pIC50 reported for the compound CC(c1ccc(Nc2nn([C@]3(CC#N)CC[C@@H](C(=O)OC(C)(C)C)OC3)c3cc[nH]c(=O)c23)cc1)N1CCCC1 (single isomer, unassigned) [Example 5-212] is 9.66

Value of pIC50 reported for the compound N#CC[C@@]1(n2nc(Nc3ccc(Cl)cc3)c3c(=O)[nH]ccc32)CCOC1 (single isomer, unassigned) is 8.58
